Origin of values: paper PMC3501490

- TARGET_OR_TEST_SYSTEM: N-terminal SH2 domain of SHP-2 (Homo sapiens)
- Construct: SHP-2 (N)SH2 (His-tag) (OMC #3912); His-tag; host or cells: E. coli BL21(DE3)
- PROTOCOL_TEXT: SPR (BIAcore 3000), single N-terminal SH2 domain of SHP-2
- Format: binding
- CONDITIONS: HBS pH 7.4, 37°C, 10 µl/min, read-out: KD, estimated by fixing maximum binding
pKd: −log10 of the molar value. Where no end group is shown, it is not given here. [ ]: non-standard residue; d: D form. pY = N[C@@H](Cc1ccc(OP(=O)(O)O)cc1)C(=O)O

[
  {
    "SUBSTANCE": "PLVKTEPQRPVKEEEPKIPGDLDQEPSLLYADLDHLALSRPRRLSTADPADASTI[pY]AVVV [pY237]",
    "pKd": 5.00
  }
]

----------
- TARGET_OR_TEST_SYSTEM: Syk (Homo sapiens, UniProt P43405)
- Construct: made in house
- PROTOCOL_TEXT: SPR (BIAcore 3000), Syk SH2 domains
- Type: binding
- CONDITIONS: HBS pH 7.4, 37°C, n = 3
pKd: −log10 of the molar value. Where no end group is shown, it is not given here. [ ]: non-standard residue; d: D form. pY = N[C@@H](Cc1ccc(OP(=O)(O)O)cc1)C(=O)O
MEASUREMENT_KIND: pKd

[
  {
    "SUBSTANCE": "PLVKTEPQRPVKEEEPKIPGDLDQEPSLL[pY]ADLDHLALSRPRRLSTADPADASTI[pY]AVVV [dual phosphopeptide]",
    "TARGET_OR_TEST_SYSTEM": "Syk (Homo sapiens, UniProt P43405)",
    "MEASUREMENT_KIND": "pKd",
    "OBSERVED_MEASUREMENT": "~4.60"
  }
]

----------
- TARGET_OR_TEST_SYSTEM: SHP-1 tandem (N+C) SH2 domains (Homo sapiens, UniProt P29350)
- Construct: host or cells: E. coli BL21(DE3)
- PROTOCOL_TEXT: SPR (BIAcore 3000), SHP-1 tandem (N+C) SH2 domains
- Type: binding
- CONDITIONS: kinetic (koff/kon), single site model, HBS pH 7.4, 37°C, 50 µl/min, mean, n = 5, SEM, read-out: binding affinity (KD)
pKd: −log10 of the molar value. Where no end group is shown, it is not given here. [ ]: non-standard residue; d: D form. pY = N[C@@H](Cc1ccc(OP(=O)(O)O)cc1)C(=O)O

[
  {
    "SUBSTANCE": "PLVKTEPQRPVKEEEPKIPGDLDQEPSLL[pY]ADLDHLALSRPRRLSTADPADASTI[pY]AVVV [dual phosphopeptide]",
    "pKd": 7.45
  }
]

----------
- TARGET_OR_TEST_SYSTEM: N-terminal SH2 domain of SHP-2 (Homo sapiens, UniProt Q06124)
- Construct: SHP-2 (N)SH2 (His-tag) (OMC #3912); His-tag; host or cells: E. coli BL21(DE3)
- Sequence (Q06124 6-102 limits assumed): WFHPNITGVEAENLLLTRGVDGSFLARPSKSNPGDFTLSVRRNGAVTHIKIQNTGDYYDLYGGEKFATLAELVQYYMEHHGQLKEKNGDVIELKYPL
- PROTOCOL_TEXT: SPR (BIAcore 3000), single N-terminal SH2 domain of SHP-2
- Assay type: binding
- CONDITIONS: equilibrium binding, single site fitting, HBS pH 7.4, 37°C, 10 µl/min, read-out: KD
Where no end group is shown, it is not given here. [ ]: non-standard residue; d: D form. pY = N[C@@H](Cc1ccc(OP(=O)(O)O)cc1)C(=O)O

[
  {
    "SUBSTANCE": "PLVKTEPQRPVKEEEPKIPGDLDQEPSLL[pY]ADLDHLALSRPRRLSTADPADASTIYAVVV [pY211]",
    "UNIT_INFO": "nM",
    "Kd": 110
  },
  {
    "SUBSTANCE": "PLVKTEPQRPVKEEEPKIPGDLDQEPSLL[pY]ADLDHLALSRPRRLSTADPADASTI[pY]AVVV [dual phosphopeptide]",
    "UNIT_INFO": "nM",
    "Kd": 130
  }
]
